Listed compounds paired with reported Kb
Target: human prostanoid EP3 receptor (Homo sapiens)
Construct: expressed in transfected cells
Sequence (P43115 whole entry): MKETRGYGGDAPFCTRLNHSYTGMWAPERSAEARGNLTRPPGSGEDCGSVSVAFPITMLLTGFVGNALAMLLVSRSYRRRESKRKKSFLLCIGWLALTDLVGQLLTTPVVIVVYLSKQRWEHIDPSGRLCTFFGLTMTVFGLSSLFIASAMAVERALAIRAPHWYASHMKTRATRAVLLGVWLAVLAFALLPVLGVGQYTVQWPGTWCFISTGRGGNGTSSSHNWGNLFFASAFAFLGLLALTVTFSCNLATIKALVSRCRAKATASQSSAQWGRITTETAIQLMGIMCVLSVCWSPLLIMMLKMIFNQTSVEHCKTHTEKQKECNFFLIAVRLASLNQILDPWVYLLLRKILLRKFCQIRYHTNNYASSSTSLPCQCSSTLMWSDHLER
Experiment: FLIPR Ca2+ signaling PG antagonist assay, EP3 stable cell line
Type: cell-based
Conditions: HEK-293 EBNA cells, human recombinant EP3 with chimeric Gqi; standard agonist PGE2
Express your answer in µM, writing the number without its unit.

Given CC(C)COc1ccc(OC(F)F)cc1Cn1ncc2cc(C(=O)O)ccc21 [Example 56] , state its recorded Kb.
8.8

Ok, now O=C(O)c1ccc2c(cnn2Cc2cc(Cl)ccc2OCc2ccc(Cl)cc2)c1 [Example 9]
4.9

Ok, now O=C(O)c1ccc2c(cnn2Cc2cc(Br)ccc2OCC2CCCC2)c1 [Example 14]
1.5

Ok, now CCc1nn(Cc2cc(Br)ccc2OCC(CC)CC)c2ccc(C(=O)O)cc12 [Example 65]
4.7

Ok, now CC1(COc2ccc(Br)cc2Cn2ncc3cc(C(=O)O)ccc32)CC1 [Example 19]
3.6

Next:
Given O=C(O)c1ccc2c(cnn2Cc2cc(C(F)(F)F)ccc2OCC2CCCC2)c1 [Example 33] , state its recorded Kb.
1.4
